Recorded Minimum Inhibitory Concentration (MIC) values for a group of molecules are listed next.
- Tested on: K. pneumoniae PCI-602
- assay.overview: in vitro antibacterial activity, agar plate dilution method (MIC)
- Format: cell-based
- condition: K. pneumoniae PCI-602; 10^6 CFU/ml

molecule	target	Minimum Inhibitory Concentration (MIC)
Nc1nc(C(=NOC(C(=O)O)c2ccc(O)c(O)c2)C(=O)NC2C(=O)N3C(C(=O)O)=C(CSc4nnc(-c5ccc(O)c(O)c5)s4)CSC23)cs1 (single isomer, unassigned)	K. pneumoniae PCI-602	< 6 ng/mL
Nc1nc(C(=NOC(C(=O)O)c2ccccc2)C(=O)NC2C(=O)N3C(C(=O)O)=C(CSc4nc(C(=O)O)c(-c5ccc(O)c(O)c5)s4)CSC23)cs1 (single isomer, unassigned) [Example 51 DA]	K. pneumoniae PCI-602	12.5 ng/mL
Nc1nc(C(=NOC(C(=O)O)c2ccccc2)C(=O)NC2C(=O)N3C(C(=O)O)=C(CSc4nc(C(=O)O)c(-c5ccc(O)c(O)c5)s4)CSC23)cs1 (single isomer, unassigned) [Example 51 DB]	K. pneumoniae PCI-602	< 6 ng/mL
Nc1nc(/C(=N/OC(C(=O)O)c2ccccc2)C(=O)N[C@@H]2C(=O)N3C(C(=O)O)=C(CSc4nnc(-c5ccc(O)c(O)c5)o4)CS[C@H]23)cs1 (single isomer, unassigned)	K. pneumoniae PCI-602	< 6 ng/mL

The measured values listed here are drawn from patent US5061794A.
